Please go through the items and note down their Ki.
Biological target: rNav1.2 sodium channels (HEK-293 cells) (Rattus norvegicus)
Experiment: steady-state inactivation protocol (availability curves), QPatch automated patch-clamp
Format: cell-based
Conditions: geometric mean; from apparent affinity, 30 µM; read-out: Ki−Kapp (inactivated state affinity)
Just the number in nM, nothing appended.

[in] Supply Ki measured with rNav1.2 sodium channels (HEK-293 cells) (Rattus norvegicus) for CN(C)CCC=C1c2ccccc2CCc2ccccc21 .
[out] 4920

[in] State measured Ki of the compound CCc1nn(CCCN2CCN(c3cccc(Cl)c3)CC2)c(=O)n1CCOc1ccccc1 with rNav1.2 sodium channels (HEK-293 cells) (Rattus norvegicus).
[out] 920

[in] // fetch Ki; item: CN(C)CCCN1c2ccccc2Sc2ccc(Cl)cc21 ; system: rNav1.2 sodium channels (HEK-293 cells) (Rattus norvegicus)
[out] 820

[in] // output Ki; input CN(C)CC/C=C1/c2ccccc2Sc2ccc(Cl)cc21 ; system rNav1.2 sodium channels (HEK-293 cells) (Rattus norvegicus)
[out] 1740

[in] Find Ki for Fc1ccc([C@@H]2CCNC[C@H]2COc2ccc3c(c2)OCO3)cc1 on rNav1.2 sodium channels (HEK-293 cells) (Rattus norvegicus) and write it down.
[out] 730

---

Molecular target: rNav1.2 sodium channels (HEK-293 cells) (Rattus norvegicus, UniProt P04775)
Sequence (P04775 whole entry): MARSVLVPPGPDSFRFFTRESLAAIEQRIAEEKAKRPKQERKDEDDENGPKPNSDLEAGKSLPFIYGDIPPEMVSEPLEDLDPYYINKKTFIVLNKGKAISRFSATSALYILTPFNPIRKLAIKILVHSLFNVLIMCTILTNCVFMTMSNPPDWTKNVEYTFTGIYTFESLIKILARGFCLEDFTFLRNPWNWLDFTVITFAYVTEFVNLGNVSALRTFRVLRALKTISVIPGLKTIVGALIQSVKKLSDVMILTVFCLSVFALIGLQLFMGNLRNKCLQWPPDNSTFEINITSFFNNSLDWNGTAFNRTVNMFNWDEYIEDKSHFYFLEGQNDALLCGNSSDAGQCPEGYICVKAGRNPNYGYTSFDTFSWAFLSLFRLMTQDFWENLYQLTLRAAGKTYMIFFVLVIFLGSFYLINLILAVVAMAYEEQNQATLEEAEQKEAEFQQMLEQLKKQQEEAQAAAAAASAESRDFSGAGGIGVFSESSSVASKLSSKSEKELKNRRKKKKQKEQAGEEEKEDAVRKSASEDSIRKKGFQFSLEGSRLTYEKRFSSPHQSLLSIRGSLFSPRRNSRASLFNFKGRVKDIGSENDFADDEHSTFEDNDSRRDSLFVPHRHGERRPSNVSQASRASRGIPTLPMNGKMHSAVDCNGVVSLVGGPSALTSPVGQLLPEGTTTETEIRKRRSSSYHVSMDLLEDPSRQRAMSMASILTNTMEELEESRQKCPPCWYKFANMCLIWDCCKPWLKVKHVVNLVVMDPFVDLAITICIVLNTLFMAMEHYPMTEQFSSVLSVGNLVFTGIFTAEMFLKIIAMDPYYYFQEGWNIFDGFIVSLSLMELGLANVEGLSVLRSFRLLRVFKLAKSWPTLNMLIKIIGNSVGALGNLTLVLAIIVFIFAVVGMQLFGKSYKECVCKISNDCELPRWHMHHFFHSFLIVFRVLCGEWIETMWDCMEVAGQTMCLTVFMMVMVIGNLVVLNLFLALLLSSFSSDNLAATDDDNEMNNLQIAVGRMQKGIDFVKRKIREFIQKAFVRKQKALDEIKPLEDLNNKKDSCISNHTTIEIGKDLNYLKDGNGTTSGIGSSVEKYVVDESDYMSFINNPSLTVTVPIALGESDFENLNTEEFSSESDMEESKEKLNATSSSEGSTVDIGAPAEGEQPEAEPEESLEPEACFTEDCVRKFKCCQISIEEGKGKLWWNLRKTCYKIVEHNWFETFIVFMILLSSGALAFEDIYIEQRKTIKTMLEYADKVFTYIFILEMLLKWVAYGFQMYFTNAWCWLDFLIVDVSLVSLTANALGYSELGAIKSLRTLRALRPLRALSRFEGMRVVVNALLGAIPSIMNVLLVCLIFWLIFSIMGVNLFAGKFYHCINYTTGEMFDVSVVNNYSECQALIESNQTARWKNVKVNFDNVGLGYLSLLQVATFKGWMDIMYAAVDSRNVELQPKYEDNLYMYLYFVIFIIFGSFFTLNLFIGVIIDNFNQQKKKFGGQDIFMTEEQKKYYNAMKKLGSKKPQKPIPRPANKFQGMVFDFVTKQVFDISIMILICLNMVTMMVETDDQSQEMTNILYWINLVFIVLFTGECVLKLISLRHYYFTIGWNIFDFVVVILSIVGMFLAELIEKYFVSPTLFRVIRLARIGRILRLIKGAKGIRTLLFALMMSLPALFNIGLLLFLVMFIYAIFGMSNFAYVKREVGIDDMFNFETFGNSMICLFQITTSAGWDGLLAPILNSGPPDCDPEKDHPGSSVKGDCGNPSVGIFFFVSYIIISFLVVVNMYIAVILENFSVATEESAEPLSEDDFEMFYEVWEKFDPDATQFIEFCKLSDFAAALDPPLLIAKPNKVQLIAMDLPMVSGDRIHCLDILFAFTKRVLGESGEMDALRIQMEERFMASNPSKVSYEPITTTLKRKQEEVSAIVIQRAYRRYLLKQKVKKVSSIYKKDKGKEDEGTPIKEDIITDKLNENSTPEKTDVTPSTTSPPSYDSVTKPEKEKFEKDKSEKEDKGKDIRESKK
Assay: 5 Hz train protocol, QPatch automated patch-clamp
Assay type: cell-based
Conditions: HEK293; 30 μM; −90 mV holding potential, 5 Hz train; read-out: Inh (inhibited fraction)
measured quantity: inhibition at 30 µM (%)
Number only, in %; omit the unit.

[in] Please report the measured inhibition at 30 µM for CNCCCN1c2ccccc2CCc2ccccc21
[out] 62

[in] Provide measured inhibition at 30 µM value, entry: Fc1ccc([C@@H]2CCNC[C@H]2COc2ccc3c(c2)OCO3)cc1
[out] 65

[in] Please report the measured inhibition at 30 µM for CN(C)CC/C=C1/c2ccccc2Sc2ccc(Cl)cc21
[out] 28

---

Target: rNav1.2 sodium channels (HEK-293 cells) (Rattus norvegicus)
Assay: 5 Hz train protocol, QPatch automated patch-clamp
Type: cell-based
Conditions: HEK293; 300 μM; −90 mV holding potential, 5 Hz train; read-out: Inh (inhibited fraction)
Give measured inhibition at 300 µM for each item. Keep answers brief.
Just the number in %, nothing appended.

[in] Provide only the value of recorded inhibition at 300 µM for O=C(NCC1CCCCN1)c1cc(OCC(F)(F)F)ccc1OCC(F)(F)F (centres unmarked) [FLC, Flecainide]
[out] 82

[in] State its inhibition at 300 µM for this compound: NS(=O)(=O)Cc1noc2ccccc12 [ZON, Zonisamide]
[out] 9

[in] Give the reported value of inhibition at 300 µM for this record: CCN(CC)CCNC(=O)c1ccc(N)cc1 [PRC, Procainamide]
[out] 14

[in] Read the entry CCN(CC)CCNC(=O)c1cc(S(C)(=O)=O)ccc1OC [TIA, Tiapride] and write its reported inhibition at 300 µM.
[out] 7

[in] Quick one: give measured inhibition at 300 µM for Cc1cccc(C)c1OCC(C)N (centres unmarked) [MEX, Mexiletine]
[out] 57

[in] Look up and report measured inhibition at 300 µM for this entry: CC1(C)O[C@@H]2[C@@H](CO[C@@]3(COS(N)(=O)=O)OC(C)(C)O[C@@H]23)O1 [TOP, Topiramate]
[out] 7

[in] Kindly indicate its recorded inhibition at 300 µM. Item: NC(=O)N1c2ccccc2C=Cc2ccccc21 [CBZ, Carbamazepine]
[out] 29

[in] Please indicate inhibition at 300 µM recorded for O=C1NC(=O)C(c2ccccc2)(c2ccccc2)N1 [DPH, 5,5-diphenyl-hydantoin]
[out] 18
